- System: Setaria viridis (SETVI)
- MEASUREMENT_NOTES: B. Herbicidal post-emergence efficacy, SETVI
- Assay type: in vivo
- CONDITION_SET: 320 g/ha
VALUE_KIND: Post-emergence efficacy against SETVI (%)
Write it as a number; the unit % goes unstated.

Previously resolved entries follow.
INSERT INTO assay_data (molecule, value_kind, assay_value) VALUES
  ('O=S(=O)(CCCCl)Oc1ccccc1Oc1ncc(Cl)cn1 [Example I-2]', 'Post-emergence efficacy against SETVI', 100),
  ('O=S(=O)(CCCC(F)(F)F)Oc1c(F)cccc1Oc1ncc(Cl)cn1 [Example I-49]', 'Post-emergence efficacy against SETVI', 90),
  ('O=S(=O)(CCC(F)(F)F)Oc1c(F)cccc1Oc1ncc(Cl)cn1 [Example I-48]', 'Post-emergence efficacy against SETVI', 90),
  ('O=S(=O)(CCCC(F)(F)F)Oc1c(Cl)cccc1Oc1ncc(Cl)cn1 [Example I-39]', 'Post-emergence efficacy against SETVI', 90),
  ('O=S(=O)(CCCC(F)(F)F)Oc1ccccc1Oc1ncc(Cl)cn1 [Example I-10]', 'Post-emergence efficacy against SETVI', 100);

Q: Any idea what its Post-emergence efficacy against SETVI is? The molecule is O=S(=O)(CC1CC(F)(F)C1)Oc1c(F)cccc1Oc1ncc(Cl)cn1 [Example I-53]
Ans: 90

Q: Consider next the molecule O=S(=O)(CCC1CC1)Oc1c(F)cccc1Oc1ncc(Cl)cn1 [Example I-55] in the same way.
Ans: 90

Q: Consider next the molecule O=S(=O)(CC1CC1(Cl)Cl)Oc1c(F)cccc1Oc1ncc(Cl)cn1 (stereo not shown) [Example I-57] in the same way.
Ans: 90

Q: Consider next the molecule Cc1cccc(Oc2ncc(Cl)cn2)c1OS(=O)(=O)CCCC(F)(F)F [Example I-28] in the same way.
Ans: 90

Q: Consider next the molecule O=S(=O)(CCCC(F)(F)F)Oc1c(F)cccc1Oc1ncc(Br)cn1 [Example I-41] in the same way.
Ans: 90

Q: Consider next the molecule O=S(=O)(CCCCl)Oc1ccccc1Oc1ncc(F)cn1 [Example I-5] in the same way.
Ans: 90

Q: Consider next the molecule O=S(=O)(CCC(F)(F)F)Oc1c(Cl)cccc1Oc1ncc(Br)cn1 [Example I-32] in the same way.
Ans: 90
